- experiment_description: PK assessment: plasma tinostamustine and metabolites M2 and M8, non-compartmental analysis and population PK model
- Type: in vivo, human
- test_settings: human, plasma, intravenous, 60 mg/m^2, 60 mg/m^2, infusion 30 minutes, day one, Mean (SD)
reported_endpoint: Tmax

Please report the measured Tmax for Cn1c(CCCCCCC(=O)NO)nc2cc(N(CCCl)CCCl)ccc21
18 min

====

- experiment_description: PK assessment: plasma tinostamustine and metabolites M2 and M8, non-compartmental analysis and population PK model
- Type: in vivo, human
- test_settings: human, plasma, intravenous, 80 mg/m^2, 80 mg/m^2, infusion 45 minutes, day one, Mean (SD)
reported_endpoint: AUC (ng·h/mL)
Lab book: enter the figure in ng·h/mL, no units written.

Please report the measured AUC for Cn1c(CCCCCCC(=O)NO)nc2cc(N(CCCl)CCCl)ccc21 [tinostamustine]
794

Data provenance is patent US12377076B2.
